System Tested: T1, human PTK7 protein (extracellular sequence of human PTK7 with C-terminal 6×His tag) (human, UniProt Q13308 31-704)
T1 construct: extracellular domain; Expressed transiently in HEK293 cells; also called human PTK7-His; human PTK7-His protein
T1 sequence: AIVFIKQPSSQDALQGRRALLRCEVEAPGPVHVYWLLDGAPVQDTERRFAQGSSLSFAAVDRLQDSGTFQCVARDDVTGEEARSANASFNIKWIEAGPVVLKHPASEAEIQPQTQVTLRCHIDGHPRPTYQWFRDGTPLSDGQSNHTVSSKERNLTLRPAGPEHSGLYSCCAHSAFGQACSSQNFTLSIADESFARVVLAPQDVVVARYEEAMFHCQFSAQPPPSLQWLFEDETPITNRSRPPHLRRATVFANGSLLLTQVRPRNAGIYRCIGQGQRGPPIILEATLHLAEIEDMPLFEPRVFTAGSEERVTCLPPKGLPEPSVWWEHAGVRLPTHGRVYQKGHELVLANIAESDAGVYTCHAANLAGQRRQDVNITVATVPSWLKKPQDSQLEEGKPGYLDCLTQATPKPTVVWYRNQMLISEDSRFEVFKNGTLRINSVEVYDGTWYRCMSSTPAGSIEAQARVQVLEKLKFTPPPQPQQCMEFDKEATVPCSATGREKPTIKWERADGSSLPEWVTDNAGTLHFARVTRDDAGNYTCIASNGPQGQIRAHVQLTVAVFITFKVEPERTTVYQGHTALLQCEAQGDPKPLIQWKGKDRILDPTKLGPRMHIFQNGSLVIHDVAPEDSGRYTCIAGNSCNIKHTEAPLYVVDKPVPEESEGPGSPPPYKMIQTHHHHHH
Assay Procedure: ELISA, coated human PTK7-His protein 1 µg/ml
Parameter Measured: EC50
Kindly report the value followed by its unit.

The cases that follow already have their EC50 on record.
{"Binder": "101A6-CH (anti-human PTK7 chimeric antibody of 101A6) (antibody, human IgG1, kappa, V domains shown, The label '-CH' is not defined in words) VH: EVKLVESGGGLVQPGGSLSLSCAASGFTFTDYYLSWVRQPPGKALEWLALIRNKANGYTTEYSASVKGRFTISRDSSQSILYLQMDALRAEDSATYYCARDTLAAYWGQGTSVTVSS VL: DIVMTQSHKFMSTSVGDRVSFTCKASQDVGSAVIWYQQKPGQSPKLLIYWASTRHTGVPDRFTGSGSGTDFTLTISNVQSEDLADYFCQQYSSYPLTFGAGTKLEIKR", "Reported Value": "0.0316 µg/mL"}
{"Binder": "64A10HZ (anti-human PTK7 humanized antibody) (antibody, human IgG1, kappa, V domains shown, Human IgG1 heavy chain constant region and human Kappa light chain constant region; expressed in CHO-S cells) VH: QVQLQESGPGLVKPSETLSLTCTVSGFSLTSYGVYWVRQPPGKGPEWLGVIWTSGNTNYNPSLKSRLTISKDNSKNQVSLKLSSVTAADTAVYYCVKHDGGNYVGVMNYWGQGTLVTVSS VL: EIVMTQSPDFQSVTPKEKVTITCRASQSISDYLHWYQQKPDQSPKLLIKYASQSISGVPSRFSGSGSGSDFTLTINSLEAEDAATYYCQNGHSFPPTFGQGTKLEIKR", "Reported Value": "0.0155 µg/mL"}
{"Binder": "Hu24 (PTK7 control antibody, taken from Hu24 in the Patent CN201580030255) (antibody) chain 1: QVQLVQSGPEVKKPGASVKVSCKASGYTFTDYAVHWVRQAPGKRLEWIGVISTYNDYTYNNQDFKGRVTMTRDTSASTAYMELSRLRSEDTAVYYCARGNSYFYALDYWGQGTSVTVSS chain 2: EIVLTQSPATLSLSPGERATLSCRASESVDSYGKSFMHWYQQKPGQAPRLLIYRASNLESGIPARFSGSGSGTDFTLTISSLEPEDFAVYYCQQSNEDPWTFGGGTKLEIK", "Reported Value": "0.0466 µg/mL"}

Need EC50, item 64A10-CH (anti-human PTK7 chimeric antibody of 64A10) (antibody, human IgG1, kappa, V domains shown, The label '-CH' is not defined in words) VH: QVQLKESGPVLVAPSQSLSITCTVSGFSLTSYGVYWVRQPPGKGPEWLGVIWTSGNTNYNSALMSRLSISKDNSKSQVFLKMNSLQTDDTAMYYCVKHDGGNYVGVMNYWGQGTSVTVSS VL: DIQMTQSPATLSVTPGDRVSLSCRASQSISDYLHWYQQKSQESPRLLIKYASQSISGIPSRFSGSGSGSDFTLSINSVEPEDVGVYYCQNGHSFPPTFGGGTKLEIKR 0.0258 µg/mL
